Test: Drug accumulation in human HepG2 cells lysosomes assessed as maximum fluorescence response after 24 hrs by Lysotracker Green DND-26 dye based assay
Type: ADME, cell-based
Details: hepg2, 24 h
Value type: Rmax
The response must contain the number and no unit.

Query (compound): Cl.NC1=N[C@@]2(c3cccs3)CN(c3ncc(F)cn3)C[C@H]2CS1 ; field requested: Rmax
4090

Query (compound): C[C@@]1(c2cc(-c3cncnc3)c(F)cc2F)CCSC(N)=N1 [LY-2811376] ; field requested: Rmax
3364

Query (compound): Cl.NC1=N[C@@]2(c3cnccn3)CN(c3ncc(F)cn3)C[C@H]2CS1 ; field requested: Rmax
59

Query (compound): Cl.N#Cc1ccc([C@]23CN(c4ncc(F)cn4)C[C@H]2CSC(N)=N3)s1 ; field requested: Rmax
91

Query (compound): Cl.NC1=N[C@@]2(c3ccns3)CN(c3ncc(F)cn3)C[C@H]2CS1 ; field requested: Rmax
20

Query (compound): NC1=N[C@@]2(c3cc(NC(=O)c4ccc(F)cn4)ccc3F)COC[C@H]2CS1 [LY-2886721] ; field requested: Rmax
7863
